Bridge positions count the residues as written; N and C are the ends. Square brackets hold non-standard residues; d marks the D form. Peptide text beside a SMILES is read from it. ξ: configuration not given here. dPhe(3-F) = N[C@H](Cc1cccc(F)c1)C(=O)O; dPhe(4-F) = N[C@H](Cc1ccc(F)cc1)C(=O)O; d2Nal = N[C@H](Cc1ccc2ccccc2c1)C(=O)O; d(hPhe) = N[C@H](CCc1ccccc1)C(=O)O; Thr(3ξ) = CC(O)[C@H](N)C(=O)O
Target or system somatostatin receptors sub-type 5 (Homo sapiens, UniProt P35346); recorded quantity Ki.

Need Ki, item CC(C)[C@@H]1NC(=O)[C@H](CCCCN)NC(=O)[C@@H](Cc2cccc(F)c2)NC(=O)[C@H](Cc2ccc(O)cc2)NC(=O)[C@@H](NC(=O)[C@H](N)Cc2ccc3ccccc3c2)CSSC[C@@H](C(=O)N[C@H](C(N)=O)C(C)O)NC1=O (stereo partly shown) [Example 15] (H-[d2Nal]CY[dPhe(3-F)]KVC[Thr(3ξ)]-NH2; disulfide 2-7)
≤ 100 nM

Need Ki, item CC(C)[C@@H]1NC(=O)[C@H](CCCCN)NC(=O)[C@@H](C(C)C)NC(=O)[C@H](Cc2ccc(O)cc2)NC(=O)[C@@H](NC(=O)[C@H](N)Cc2ccc3ccccc3c2)CSSC[C@@H](C(=O)N[C@H](C(N)=O)C(C)O)NC1=O (stereo partly shown) [Example 5] (H-[d2Nal]CY[dV]KVC[Thr(3ξ)]-NH2; disulfide 2-7)
≤ 5000 nM

Need Ki, item CC(C)[C@@H]1NC(=O)[C@H](CCCCN)NC(=O)[C@@H](Cc2ccc(F)cc2)NC(=O)[C@H](Cc2ccc(O)cc2)NC(=O)[C@@H](NC(=O)[C@H](N)Cc2ccc3ccccc3c2)CSSC[C@@H](C(=O)N[C@H](C(N)=O)C(C)O)NC1=O (stereo partly shown) [Example 13] (H-[d2Nal]CY[dPhe(4-F)]KVC[Thr(3ξ)]-NH2; disulfide 2-7)
≤ 1000 nM

Need Ki, item CC(C)[C@@H]1NC(=O)[C@H](CCCCN)NC(=O)[C@@H](CCc2ccccc2)NC(=O)[C@H](Cc2ccc(O)cc2)NC(=O)[C@@H](NC(=O)[C@H](N)Cc2ccc3ccccc3c2)CSSC[C@@H](C(=O)N[C@H](C(N)=O)C(C)O)NC1=O (stereo partly shown) [Example 11] (H-[d2Nal]CY[d(hPhe)]KVC[Thr(3ξ)]-NH2; disulfide 2-7)
≤ 1000 nM

====

- experiment: Solubility study before preparative HPLC
- Format: physicochemical
- condition_parameters: water-acetonitrile mixture 58:42; water-acetonitrile solution 58:42
Bridge positions count the residues as written; N and C are the ends. Square brackets hold non-standard residues; d marks the D form. Peptide text beside a SMILES is read from it. ξ: configuration not given here. dPhe(4-F) = N[C@H](Cc1ccc(F)cc1)C(=O)O; d2Nal = N[C@H](Cc1ccc2ccccc2c1)C(=O)O; Thr(3ξ) = CC(O)[C@H](N)C(=O)O
readout_kind: solubility (mg/mL)
Numbers only here, please. The scale is mg/mL.

Need solubility, item CC(C)[C@@H]1NC(=O)[C@H](CCCCN)NC(=O)[C@@H](Cc2ccc(F)cc2)NC(=O)[C@H](Cc2ccc(O)cc2)NC(=O)[C@@H](NC(=O)[C@H](N)Cc2ccc3ccccc3c2)CSSC[C@@H](C(=O)N[C@H](C(N)=O)C(C)O)NC1=O (stereo partly shown) [Example 13] (H-[d2Nal]CY[dPhe(4-F)]KVC[Thr(3ξ)]-NH2; disulfide 2-7)
49
